- Experimental details: protein stability index of a GFP-peptide fusion (yeast GPS) (PSI 1-4); higher = more stable; sorted into four equal gates, so the index is relative within each strain
- Condition context: pdr5∆
Property label: protein stability index
// no unit string in output, number only

In the examples that follow, each entry is paired with its recorded protein stability index.
- Biopolymer sequence: "TSADLKSKAEELTQVPS [UBP6]"
  protein stability index: 3.22
- Biopolymer sequence: "VGGKSTVQNEILGDLGK [FAS2]"
  protein stability index: 2.92
- Biopolymer sequence: "VKVQPEGKYIVDVAKDI [RPT6]"
  protein stability index: 3.14
- Biopolymer sequence: "DPEKDSINATALAFGYV [SIN4]"
  protein stability index: 1.56
- Biopolymer sequence: "LPLFYDLLNAASIESAD [IRR1]"
  protein stability index: 2.17

Reported protein stability index for KRVKSYMDKAKQYDNRI [LRP1] : what is it?
2.89

And YEDEELSRAEYDSDSDS [LIN1] ?
3.33

----------
Let's look at some sequences and their measured protein stability index.
- Experimental details: protein stability index of a GFP-peptide fusion (yeast GPS) (PSI 1-4); higher = more stable; sorted into four equal gates, so the index is relative within each strain
- Condition context: doa10∆
Simply state the number, no unit and no words.

These recorded examples may help you get a feel for the data.
- Biopolymer sequence: "YDDEQNTSAQHVESDKI [IRR1]"
  protein stability index: 3.25
- Biopolymer sequence: "RLSNEMHALKNRSEQNG [RGR1]"
  protein stability index: 3.32
- Biopolymer sequence: "MRSKLEKLTLVTLSEIY [CSN9]"
  protein stability index: 1.56
- Biopolymer sequence: "GGAYTVSTAAAATVRST [RPL43A]"
  protein stability index: 2.1

What value of protein stability index has been reported for the following sequence? ATDEESVRLQRFYQLGV [CSN12]
3.13

Queued: KHGAVHLSTYLKVYKVG [RPL21A]
1.76

Follow-up entry: KLTRELEKKFQDRHVIF [RPS7A]
3.08

Same read-out for RNETSVDEEDENGTHND [YCG1] ?
3.08

Lookup YSQSPPRSPGRSPTRRL [SMC4]
2.57

Same lookup for RTLEAITATLVGTVRCE [CSL4] , please.
1.73

Here is the next sequence: KTDEVIILGTNLYDGAE [BRR2]
2.98

Another sequence to check: KRRVTNLEFNYTKPYPN [SMC2]
3.12

Here is the next sequence: YSNEPFNTNFDDEFGDL [SNF6]
3.02

----------
Reported protein stability index values are given for each entry in this list.
- Experimental details: protein stability index of a GFP-peptide fusion (yeast GPS) (PSI 1-4); higher = more stable; sorted into four equal gates, so the index is relative within each strain
- Condition context: doa10∆
Simply state the number, no unit and no words.

Below, each entry is followed by its recorded protein stability index result.
- Biopolymer sequence: "VVTMSVKSVNDPSQNRL [RPC37]"
  protein stability index: 2.27
- Biopolymer sequence: "ISFLEPINLKFLQGESP [YMR129W/POM152]"
  protein stability index: 2.6

# lookup: protein stability index of GNNTELTKTTVNISAVD [YCG1]
2.98

Also LARHLPAELDLRGSLLS [RPC82] , if possible.
3.04

Now the same for HFELGGEKKQKGQALQF [RPL42A]
2.72

Thanks! And YNILGNLGIPKIAYRGV [SSN2] ?
2.55

Let us now turn to GRHVATCSSDQHIKVFK [YGL100W/SEH1]
2.71

----------
- Experimental details: protein stability index of a GFP-peptide fusion (yeast GPS) (PSI 1-4); higher = more stable; sorted into four equal gates, so the index is relative within each strain
- Condition context: doa10∆
Property label: protein stability index
// response body must contain only the number

- Biopolymer sequence: "QDHFHRLNYLYQISAYQ [RPR2]"
  Reported value: 2
- Biopolymer sequence: "TWTNSKIFIKDPKFVNS [YML103C/NUP188]"
  Reported value: 2.27
- Biopolymer sequence: "GNQRKILQYSRTWYESF [YJR042W/NUP85]"
  Reported value: 2.36

I am curious: what protein stability index value has been reported for EKRYDDKLLDFIRYDVK [CSN12] ?
3.3

Next entry: WCAGAGTAADTEAVTQL [PUP1]
3.16

Next record, please: YNMYDAYGNWFNGLKPL [PRP8]
2.93

And for RDKAGRLAEVNLKDLNN [RPO21] ?
3.15

Next sequence up: DGIFSSKTDNIEDPNLS [YMR153W/NUP53]
2.59

Here is the next sequence: STEYMMQFAKSKTVKVL [RPN6]
1.1

# repeat for SPGSPAYSPKQDEQKHN [RPO21]
3.11

----------
- Experimental details: protein stability index of a GFP-peptide fusion (yeast GPS) (PSI 1-4); higher = more stable; sorted into four equal gates, so the index is relative within each strain
- Condition context: pdr5∆
Property label: protein stability index

Below: 6 sequences and their reported protein stability index.
- Biopolymer sequence: "ATNRPDTLDPALLRPGR [RPT4]"
  protein stability index: 3.18
- Biopolymer sequence: "GNQRKILQYSRTWYESF [YJR042W/NUP85]"
  protein stability index: 2.79
- Biopolymer sequence: "TQLDKLRPRKDSKDGTT [SMB1]"
  protein stability index: 2.15
- Biopolymer sequence: "GNDTISKFYNMKQPYVF [SSN2]"
  protein stability index: 3.05
- Biopolymer sequence: "PGKGILTTAREHHSSVK [FAS2]"
  protein stability index: 3.32
- Biopolymer sequence: "IEEQGWGGFPLDISVFL [TAF14]"
  protein stability index: 3.4

Would you kindly share the measured protein stability index for NLDNLQKVSQLESADKQ [POP4] ?
2.59

Can you handle PNNETSVLSSKPGSKPE [SIR3] next?
3.04

Entry NNDQKRQQAYKTAQTLD [YJL041W/NSP1] please
3.17

----------
Listing of recorded protein stability index by entry.
- Experimental details: protein stability index of a GFP-peptide fusion (yeast GPS) (PSI 1-4); higher = more stable; sorted into four equal gates, so the index is relative within each strain
- Condition context: ubr1∆
# answer = number (no unit)

- Biopolymer sequence: "KAKSNQTQREKAPLQPN [IRR1]"
  Reported value: 3.07
- Biopolymer sequence: "ELEDVAVKKLYAIIINY [YCS4]"
  Reported value: 1.44
- Biopolymer sequence: "ISFLEPINLKFLQGESP [YMR129W/POM152]"
  Reported value: 2.67
- Biopolymer sequence: "STNEDQNNSKHTEDTVN [SRB5]"
  Reported value: 2.31
- Biopolymer sequence: "MDEMDNVIRSLEQEYRL [RMP1]"
  Reported value: 2.05
- Biopolymer sequence: "YQELFIQPKNSDDQQEA [YML103C/NUP188]"
  Reported value: 2.64
- Biopolymer sequence: "INVETVYDIMALEDEER [BRR2]"
  Reported value: 2.79
- Biopolymer sequence: "MPGSQINSPMPQQAQMQ [SNF2]"
  Reported value: 2.95

Suppose we examine the sequence TAVGKAAVVKTSSRQTV [RPT5] ; what protein stability index value has been reported?
3.15

# iterate: IIVFGYPESISNELIEH [YDL088C/ASM4]
2.75

----------
Entries and their protein stability index values follow.
- Experimental details: protein stability index of a GFP-peptide fusion (yeast GPS) (PSI 1-4); higher = more stable; sorted into four equal gates, so the index is relative within each strain
- Condition context: pdr5∆
Answer with a bare number; do not write a unit.

Some entries whose results are on file:
- Biopolymer sequence: "TPEKDLFIGLFTRPLFV [YCS4]"
  protein stability index: 1.32
- Biopolymer sequence: "IDSVEVETNTTVLADEF [RPB3]"
  protein stability index: 3.17
- Biopolymer sequence: "LTIKDIVLGVKDLQENL [RPO21]"
  protein stability index: 2.86
- Biopolymer sequence: "YTEQFQHYKNNSISSQP [SSN2]"
  protein stability index: 2.95
- Biopolymer sequence: "KKSEEKLREKVNDVELA [MTW1]"
  protein stability index: 3.03

Look at this sequence and give its reported protein stability index. IINPHAIPSRMTVAHLI [RPB2]
2.06

# iterate: SRPDILSKIKFPESIWK [YCG1]
2.04

Entry KSLESQRYVKSVKSVKF [RPC34] please
1.61

And what about the sequence MAKRTKKVGITGKYGVR [RPL43A] ?
3.34

Okay, and TKHPSLKTLTHKQIHTT [POP7] ?
2.4

Also need FVKFITYLTQEILILIN [SIN4] , thanks.
1.7

Field entry: YSEHLKPYDINVVLVTN [DIS3]
2.98

Entry to check: MGLGKTLQTISFLGYLR [ISW2]
2.06

Same again, this time with NYDCKVISIVGGHSLEE [PRP28]
2.91

Also check KDILNLASEVGDPALVY [ECM29]
3.15

Another sequence to check: IPFPDHNQSPRNTYQSA [RPB2]
3.06

Lookup SNTVNANNYSSNIGNNS [YDL088C/ASM4]
3.39

Another sequence to check: KGYLQRGDDGESYAYLA [CDC53]
3.17

Can you handle FDPVYTTVITVFLEFSL [YML103C/NUP188] next?
1.69

Similarly, RQYVGQLAPSSVDPQSS [DIS3] ?
3.06

Field entry: DNVSFIEEAKSIRRQDY [REC8]
3.06

Next sequence up: IAVLIELLEERFQDSNP [YCS4]
2.06

Same lookup for TWTNSKIFIKDPKFVNS [YML103C/NUP188] , please.
2.05

Try NYIPGNPLVTPASIVPE [COB] next.
2.36

Field entry: KVCECVCMHCGKLLLDE [RPO21]
2.97

Follow-up entry: RTAKAYLKVSEEEIKKF [PRP8]
3.11

Check FVKVTKATLELLKLIEP [RPL7A] too.
2.87
